Molecular target: T1, cMetECDHis (human, UniProt P08581 25-932, limits assumed, biotinylated in the cross-block ELISA of Example 17)
T1 construct: Expressed in HEK-293F cells; also called soluble cMetECDHis; biotinylated cMetECDHis
Assay: cross-block ELISA; competitor 062
Each entry below lists one item and its recorded residual binding, % of no competitor value.
Just the number please, in %, no unit attached.

{"Binder": "IgG1-1016-022 (antibody, V domains shown, also called TH1016-022; PC1016-022) VH: QVQLVESGGGVVQPGRSLRLSCAASGFTFSSYAMHWVRQAPGKGLEWVAVISYDGSNKYYADSVKGRFTISRDNSKNTLYLQMNSLRAEDTAVYYCARELLWFGELWGYFDLWGRGTLVTVSS VL: DIQMTQSPSSVSASVGDRVTITCRASQGISSWLAWYQHKPGKAPKLLIYAASSLQSGVPSRFSGSGSGTDFTLTISSLQPEDFATYYCQEASSFTWTFGQGTKVEIK", "residual binding, % of no competitor (%)": 99.4}
{"Binder": "anti-c-Met HuMab 006 (IgG1) (antibody, V domains shown, also called TH1016-006; PC1016-006) VH: QVQLVQSGAEVKKPGSSVKVSCKASGGTFSSFGIGWVRQAPGQGLEWMGRIFPILGTANYAQMFQGRVTITADKSTSTAYMELTSLRSEDTAVYYCARDVGYDSADAFDIWGQGTMVTVSS VL: DIQMTQSPSSLSASVGDRVTITCRASQGISSWLAWYQQKPEKAPKSLIYAASSLQSGVPSRFSGSGSGTDFTLTISSLQPEDFATYYCQQYNSYPPTFGQGTKVEIK", "residual binding, % of no competitor (%)": 119}
{"Binder": "anti-c-Met HuMab 008 (IgG1) (antibody, V domains shown, also called TH1016-008; PC1016-008) VH: EVQLVQSGAEVKKPGESLKISCKGSGYSFTSYWIGWVRQMPGKGLEWMGIIYPGDSETRYSPSFQGQVTISADKSISTAYLQWSSLKASDTAMYYCARQEITGEFDYWGQGTLVTVSS VL: AIQLTQSPSSLSASVGDRVTITCRASQGISSALAWYQQKPGKAPKLLIYDASSLESGVPSRFSGSGSGTDFTLTISSLQPEDFATYYCQQFNSYPRTFGQGTKVEIK", "residual binding, % of no competitor (%)": 100}
{"Binder": "IgG1-1016-058 (antibody, V domains shown, also called IgG1-058; TH1016-058) VH: EVQLVESGGGLVKPGGSLKLSCAASGFTFSDYYMYWVRQTPEKRLEWVATISDDGSYTYYPDSVKGRFTISRDNAKNNLYLQMSSLKSEDTAMYYCAREGLYYYGSGSYYNQDYWGQGTLVTVSS VL: AIQLTQSPSSLSASVGDRVTITCRASQGLSSALAWYRQKPGKAPKLLIYDASSLESGVPSRFSGSGSGTDFTLTISSLQPEDFATYYCQQFTSYPQITFGQGTRLEIK", "residual binding, % of no competitor (%)": 109}
{"Binder": "IgG1-1016-069 (antibody, V domains shown, also called clone 069; TH1016-069) VH: QVQLVQSGAEVKKPGASVKVSCETSGYTFTSYGISWVRQAPGHGLEWMGWISAYNGYTNYAQKLQGRVTMTTDTSTSTAYMELRSLRSDDTAVYYCARDLRGTNYFDYWGQGTLVTVSS VL: DIQMTQSPSSVSASVGDRVTITCRASQGISNWLAWFQHKPGKAPKLLIYAASSLLSGVPSRFSGSGSGTDFTLTISSLQPEDFATYYCQQANSFPITFGQGTRLEIK", "residual binding, % of no competitor (%)": 2.2}

Here is another binder to look at.
[in] Give recorded residual binding, % of no competitor. anti-c-Met HuMab 045 (IgG1) (antibody, V domains shown, also called TH1016-045; PC1016-045) VH: EVQLLESGGGLVQPGGSLRLSCAASGFTFSSYAMSWVRQAPGKGLEWVSVISGSGGITYYADSVKGRFTISRDNSKNTLYLQMNSLRAEDTAVYYCARDRGWGSDYWGQGTLVTVSS VL: EIVLTQSPATLSLSPGERATLSCRASQSVSSYLAWYQQKPGQAPRLLIYDASNRATGIPARFSGSGSGTDFTLTISSLEPEDFAVYYCQQRSNWPFTFGPGTKVDIK
[out] 103
